As shown below, each of these molecules has a reported melting point value.
Quantity Measured: melting point

[[record]]
molecule = "C[C@@H](O)c1nccc(N2CCN(c3ccnc(CO)n3)[C@@H](C)C2)n1 [Example 37]"
result = "178 to 181 °C"

[[record]]
molecule = "C[C@@H]1CN(c2nc3ncccc3o2)C[C@H](C)N1c1ccnc([C@@H](C)O)n1 [Example 31]"
result = "231 to 233 °C"

[[record]]
molecule = "C[C@@H](O)c1nccc(N2CCc3nc(N)ncc3C2)n1 [Example 256]"
result = "208 to 210 °C"

